# TEST_DESCRIPTION: CodeBreaK 100 multiple-dose PK
# Type: in vivo, human
# CONDITION: human, plasma, po, 360 mg

SMILES_STRUCTURE	AUC(0-t)
C=CC(=O)N1CCN(c2nc(=O)n(-c3c(C)ccnc3C(C)C)c3nc(-c4c(O)cccc4F)c(F)cc23)[C@@H](C)C1	38900 ng·h/mL

====

# TEST_DESCRIPTION: CodeBreaK 100 multiple-dose PK
# Type: in vivo, human
# CONDITION: human, plasma, po, 360 mg
PROPERTY_MEASURED: Cmax (ng/mL)

COMPOUND	READOUT_UNITS	RECORDED_MEASUREMENT
C=CC(=O)N1CCN(c2nc(=O)n(-c3c(C)ccnc3C(C)C)c3nc(-c4c(O)cccc4F)c(F)cc23)[C@@H](C)C1 [sotorasib]	ng/mL	6310
